Recorded measurements of Percentage recovery 30 min., one per entry
Test system: Langendorff perfused rat heart
EXPERIMENTAL_PROTOCOL: Compound at reperfusion after brief (16 min.) ischemic insult (Table 3)
MEASUREMENT_CONTEXT: 0.001 ug/ml at reperfusion
Give the value, in units of %, as a plain number.

Worked examples follow.
O=C1CCCN1CCCN1CCN(c2ccc(Cl)cc2)CC1 [Example 3]
120.80
O=C1CCCN1CCCN1CCN(c2ccccn2)CC1 [2-Pyridyl, n=1]
71.40

Fill blank: measured Percentage recovery 30 min. of the compound CCc1ccccc1N1CCN(CCCN2CCCC2=O)CC1 [Example 7] is ____.
136.36

What do you get for O=C1CCCN1CCCN1CCN(c2ccc(F)cc2)CC1 [Example 5] ?
78.12

###

Test system: Langendorff perfused rat heart
EXPERIMENTAL_PROTOCOL: Compound at reperfusion after brief (16 min.) ischemic insult (Table 3)
MEASUREMENT_CONTEXT: 0.001 ug/ml at reperfusion
Measured Percentage recovery 30 min., listed per entry for reference.
Only the number, expressed in %, is required.

Record excerpt, results attached:
COc1ccccc1N1CCN(CCCN2CCCC2=O)CC1 [C6 H4-2-OCH3, n=1]
59.09
O=C1CCCN1CCCN1CCN(c2cccc(F)c2)CC1 [Example 4]
180.00

Query compound follows.
Return reported Percentage recovery 30 min.; argument: CCc1ccc(N2CCN(CCCN3CCCC3=O)CC2)cc1 [Example 6]
60.60
